# Measurement target: 3-hydroxy-3-methylglutaryl-coenzyme A reductase (Rattus norvegicus, UniProt P51639)
# Sequence (P51639 whole entry): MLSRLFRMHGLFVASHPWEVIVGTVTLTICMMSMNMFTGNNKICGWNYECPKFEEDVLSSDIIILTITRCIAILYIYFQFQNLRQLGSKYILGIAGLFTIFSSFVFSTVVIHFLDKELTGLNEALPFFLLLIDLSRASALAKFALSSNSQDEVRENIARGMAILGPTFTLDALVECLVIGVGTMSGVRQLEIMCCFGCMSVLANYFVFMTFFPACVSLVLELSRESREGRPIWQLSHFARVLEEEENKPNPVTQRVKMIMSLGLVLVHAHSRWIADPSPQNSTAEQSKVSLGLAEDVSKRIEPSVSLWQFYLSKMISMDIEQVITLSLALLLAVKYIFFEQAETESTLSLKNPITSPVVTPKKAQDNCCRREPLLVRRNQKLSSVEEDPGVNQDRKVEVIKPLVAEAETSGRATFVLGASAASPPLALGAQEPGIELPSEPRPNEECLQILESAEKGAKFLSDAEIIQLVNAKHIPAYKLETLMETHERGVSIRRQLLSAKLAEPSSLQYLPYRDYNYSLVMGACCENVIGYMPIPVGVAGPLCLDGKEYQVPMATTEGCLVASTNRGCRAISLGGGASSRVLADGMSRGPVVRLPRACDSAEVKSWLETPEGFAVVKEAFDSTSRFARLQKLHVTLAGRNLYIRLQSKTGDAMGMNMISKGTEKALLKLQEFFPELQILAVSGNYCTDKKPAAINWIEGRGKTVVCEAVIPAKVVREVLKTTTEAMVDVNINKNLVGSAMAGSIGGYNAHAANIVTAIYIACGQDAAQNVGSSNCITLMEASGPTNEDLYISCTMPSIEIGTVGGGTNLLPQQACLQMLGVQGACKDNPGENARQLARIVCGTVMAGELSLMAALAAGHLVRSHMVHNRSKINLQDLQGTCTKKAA
pIC50: −log10 of the molar value.
Would you please tag the item 1.0 when its pIC50 is 7 or above, and 0.0 when it is below?

Solved cases below.
Prompt: I'd appreciate it if you could say whether Cc1nc(-c2ccc(F)cc2)c(-c2ccc(F)cc2)n1/C=C/[C@@H](O)C[C@@H](O)CC(=O)O has pIC50 at least equal to 7.
Response: 0.0

Prompt: I'd appreciate it if you could say whether O=C(O)C[C@H](O)C[C@H](O)CCn1c(C(F)(F)F)nc(-c2cccc(Cl)c2)c1-c1ccc(F)cc1 has pIC50 at least equal to 7.
Response: 1.0

Prompt: I'd appreciate it if you could say whether CN(C)c1nc(-c2ccc(F)cc2)c(-c2ccc(F)cc2)n1/C=C/[C@@H](O)C[C@@H](O)CC(=O)O has pIC50 at least equal to 7.
Response: 1.0

Prompt: I'd appreciate it if you could say whether O=C(O)C[C@H](O)C[C@H](O)CCn1c(C(F)(F)F)nc(-c2ccc(F)cc2)c1-c1cccs1 has pIC50 at least equal to 7.
Response: 0.0

Prompt: I'd appreciate it if you could say whether O=C(O)C[C@H](O)C[C@H](O)/C=C/n1c(C(F)(F)F)nc(-c2ccc(F)cc2)c1-c1ccc(F)cc1 has pIC50 at least equal to 7.
Response: 1.0

Continuing:
Prompt: I'd appreciate it if you could say whether O=C(O)C[C@H](O)C[C@H](O)CCn1c(C(F)(F)F)nc(-c2ccc(C(F)(F)F)cc2)c1-c1ccc(F)cc1 has pIC50 at least equal to 7.
Response: 0.0

Prompt: I'd appreciate it if you could say whether O=C(O)C[C@H](O)C[C@H](O)CCn1c(C(F)(F)F)nc(-c2ccc(F)cc2)c1-c1ccc(F)cc1 has pIC50 at least equal to 7.
Response: 1.0

Prompt: I'd appreciate it if you could say whether CC(C)c1nc(-c2cccc(S(C)(=O)=O)c2)c(-c2ccc(F)cc2)n1/C=C/[C@@H](O)C[C@@H](O)CC(=O)O has pIC50 at least equal to 7.
Response: 1.0

Origin of the recorded values: ChEMBL document CHEMBL1126904
